# System: SR leukemia
# method description: NCI tumour cell line growth inhibition, 48 h
TGI values by entry

Some solved cases for reference:
molecule: C[C@H]1CCC2C(OC(=O)[C@@H]2CN(C)C)[C@]2(C)C(=O)C=CC12O (some centres not stated)
TGI: 11.2 µM

molecule: COC(=O)C(/C(=N\O)C(=O)Nc1ccc(Br)cc1)c1nc2ccccc2[nH]c1=O (configuration not stated)
TGI: 40.5 µM

molecule: Nc1ccn(CC(O)c2cc3ccccc3[nH]2)c(=O)n1 (configuration not stated)
TGI: > 100 µM

molecule: Cc1ccc([N+]2=NC(c3ccccc3)=NN(c3ccccc3)C2)cc1
TGI: > 100 µM

Query: Requested read-out: TGI. Entry: `N#CC(C#N)C(c1ccccc1)c1ccccc1`
Result: > 100 µM

Query: Also `CN1CCN(c2nc3cc(F)ccc3n3cccc23)CC1` , if possible.
Result: > 100 µM

Query: Also COc1cccc(N(CN2C(=O)CCC2OC)C(C)=O)c1 (configuration not stated) , if possible.
Result: > 100 µM

Query: Also `CCOP(=O)(Cc1nc(C#N)c(N)o1)OCC` , if possible.
Result: > 100 µM

Query: Also `CCCC(=O)OC(OC(=O)CCC)c1ccc([N+](=O)[O-])o1` , if possible.
Result: 53.1 µM

---

# System: SNB-19 CNS
# method description: NCI tumour cell line growth inhibition, 48 h
TGI values by entry

Some solved cases for reference:
item smiles: Cc1ccc([N+]2=NC(c3ccccc3)=NN(c3ccccc3)C2)cc1
TGI: > 100 µM
//
item smiles: Cc1nc2sc(C(=O)Nc3ccccc3)c(N)c2cc1C(=O)c1ccccc1
TGI: > 50 µM

API: the following record is the query input.
Query: Request: TGI, test system SNB-19 CNS, entry `C=C(Cl)CN1c2ccccc2C=Cc2ccccc21`
Result: > 100 µM

---

# System: SR leukemia
# method description: NCI tumour cell line growth inhibition, 48 h
TGI values by entry

Some solved cases for reference:
compound: O=S(=O)(Nc1ccc(Cl)c(Cl)c1)c1ccc(-c2cnc(C3CC3)o2)cc1
test system: SR leukemia
TGI: 62.6 µM
//
compound: C[C@@H]1Cc2c(ccc3[nH]ncc23)[C@@H](c2ccc(NC3CN(CCCF)C3)cn2)N1CC(F)(F)F
test system: SR leukemia
TGI: 53.1 µM
//
compound: CC(C)=C=CP(=O)(O)c1ccccc1
test system: SR leukemia
TGI: > 100 µM
//
compound: CC1=NN(c2nc(N)nc(-c3cc4ccccc4oc3=N)n2)C(C)(C)C1
test system: SR leukemia
TGI: 46.8 µM
//
compound: CN1C/C(=C\c2ccc(C(=O)O)cc2)C(=O)/C(=C/c2ccc(C(=O)O)cc2)C1
test system: SR leukemia
TGI: > 100 µM

Query: Request: TGI, test system SR leukemia, entry CCOC(=O)CCC(NC(=O)c1ccc(Nc2nc3ccccc3nc2C(=O)OCC)s1)C(=O)OCC (stereo not drawn)
Result: > 100 µM

Query: Also `N#CNC1=NCCC(=O)N1CCc1c[nH]c2ccccc12` , if possible.
Result: > 100 µM

Query: Also `CCN(CC)CCNc1ccc([N+](=O)[O-])c2nc3ccc(OC)cc3c(N)c12` , if possible.
Result: 0.972 µM

Query: Also `c1ccc(-c2cc3n4c(-c5ccccc5)nn(-c5ccccc5)c4cnc-3n2)cc1` , if possible.
Result: > 50 µM

Query: Also `Cc1ccc2c(c1)Nc1ccccc1P2(=O)O` , if possible.
Result: > 100 µM

Query: Also CC/C(C)=C1\CCC(CN(C)C)C1=O (stereo not drawn) , if possible.
Result: 43.2 µM

Query: Also `CNC(=O)c1cc(-c2ccc(F)cc2)cc(-c2ccc(S(=O)(=O)N3CCCC3)cc2)c1N` , if possible.
Result: > 25 µM

Query: Also `Cn1cccc1-c1cc(-c2ccccc2)nc(N)c1C#N` , if possible.
Result: > 100 µM

Query: Also `CC(=O)c1c(O)cc(O)c(-c2c(C)cc(O)c3c2C(=O)c2cccc(O)c2C3=O)c1O` , if possible.
Result: 53.8 µM

Query: Also `COC(=N)CCCl` , if possible.
Result: > 100 µM

Query: Also `N=C1C=C(N)C(=O)c2ccccc21` , if possible.
Result: 0.667 µM

Query: Also `NC(=O)c1nc(-c2ccc(Cl)c(Cl)c2)nc2ccccc12` , if possible.
Result: > 100 µM

Query: Also `CN(C)C(=S)/N=c1\ss/c(=N\S(=O)(=O)c2ccccc2)n1C` , if possible.
Result: > 100 µM
